Test system: GABA transporter Slc6a13 (Mus musculus)
Assay: Residual mouse GAT3-mediated [3H]GABA uptake expressed in human HEK cells at 100 uM
Conditions: HEK293
value kind: residual activity (%)
Write down the numeric answer in % and omit the unit.

Example results:
C(CCNCc1nnn[nH]1)=C(c1ccccc1)c1ccccc1; 73.8
CC(C)(C)CC(C)(C)n1nnnc1CN1CCOCC1; 63.3
CC(C)(C)CC(C)(C)n1nnnc1CN1CCNCC1; 81.4
CC(C)(C)CC(C)(C)n1nnnc1CNCC(c1ccccc1)c1ccccc1; 53.8

Entry CCCCNCc1nnn[nH]1 has what residual activity?
74

# iterate: CC(C)(C)CC(C)(C)n1nnnc1CNCCCn1c2ccccc2c2ccccc21
68.8

Would you mind doing c1ccc(C(NCc2nnn[nH]2)c2ccccc2)cc1 as well?
94.2

And then c1ccc(C(CNCc2nnn[nH]2)c2ccccc2)cc1 , what is it?
63.5

Input C(CNCc1nnn[nH]1)=C(c1ccccc1)c1ccccc1
46.2

Try the compound c1ccc(C(CCCNCc2nnn[nH]2)c2ccccc2)cc1
75.1

Then what about the compound c1ccc(C(CCNCc2nnn[nH]2)c2ccccc2)cc1 ?
72.6

Now consider CCCCNCc1nnnn1C(C)(C)CC(C)(C)C .
49

For c1ccc2c(c1)c1ccccc1n2CCCNCc1nnn[nH]1 then?
83.6

Further, for c1ccc(Cn2nnnc2CNCCC(c2ccccc2)c2ccccc2)cc1 ?
51.7

Entry to check: C(CCNCc1nnnn1Cc1ccccc1)=C(c1ccccc1)c1ccccc1
53.5
